These measurements were taken from paper PMC6371206.

tested on: hD2R; assay: Pairwise bias factor calculation; type: cell-based, human; conditions: logarithmic scale; relative to quinpirole; negative = GoA bias; 30 min data
attributeMeasured: Bias factor Gi1–GoA activation
Hey, just send me the number, nothing else.

CN(CC[C@@H]1C[C@H]1CNC(=O)c1cc2ccccc2[nH]1)[C@@H]1Cc2cccc3[nH]c(=O)n(c23)C1: 0.24

Now look at this entry.
GET /value?item= "CN(CCCCNC(=O)c1nc2ccccc2s1)[C@@H]1Cc2cccc3[nH]c(=O)n(c23)C1" &field=Bias factor Gi1–GoA activation returns 0.43

* * *

biological target: hD2R (D2SR), Gi1 activation (Homo sapiens, UniProt P14416); assay: cell-based; format: cell-based; conditions: HEK293, read-out: Gi1 Activation Emax
Sequence (P14416 1-414 isoform P14416-2): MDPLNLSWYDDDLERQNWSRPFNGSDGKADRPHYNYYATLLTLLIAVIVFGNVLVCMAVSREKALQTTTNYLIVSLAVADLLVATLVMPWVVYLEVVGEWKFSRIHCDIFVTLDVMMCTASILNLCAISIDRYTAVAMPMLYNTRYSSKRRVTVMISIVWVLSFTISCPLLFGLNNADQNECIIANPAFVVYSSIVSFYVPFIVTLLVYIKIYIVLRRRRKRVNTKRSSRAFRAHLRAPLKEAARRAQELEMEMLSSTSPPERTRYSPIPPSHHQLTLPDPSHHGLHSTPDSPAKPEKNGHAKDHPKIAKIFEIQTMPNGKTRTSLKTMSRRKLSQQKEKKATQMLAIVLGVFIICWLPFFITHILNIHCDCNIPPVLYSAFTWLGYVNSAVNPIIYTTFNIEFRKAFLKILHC
Sequence (P63096 2-354 partner limits assumed): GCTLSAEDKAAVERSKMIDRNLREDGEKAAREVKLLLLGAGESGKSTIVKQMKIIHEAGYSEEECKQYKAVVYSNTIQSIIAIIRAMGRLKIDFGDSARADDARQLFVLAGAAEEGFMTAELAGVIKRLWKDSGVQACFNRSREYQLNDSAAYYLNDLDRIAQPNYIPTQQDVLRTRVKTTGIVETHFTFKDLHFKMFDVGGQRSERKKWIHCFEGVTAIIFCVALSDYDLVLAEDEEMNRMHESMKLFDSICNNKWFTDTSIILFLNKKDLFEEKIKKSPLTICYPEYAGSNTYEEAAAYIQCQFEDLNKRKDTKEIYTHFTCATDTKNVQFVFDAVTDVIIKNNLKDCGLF
Sequence (P62873 2-340 partner limits assumed): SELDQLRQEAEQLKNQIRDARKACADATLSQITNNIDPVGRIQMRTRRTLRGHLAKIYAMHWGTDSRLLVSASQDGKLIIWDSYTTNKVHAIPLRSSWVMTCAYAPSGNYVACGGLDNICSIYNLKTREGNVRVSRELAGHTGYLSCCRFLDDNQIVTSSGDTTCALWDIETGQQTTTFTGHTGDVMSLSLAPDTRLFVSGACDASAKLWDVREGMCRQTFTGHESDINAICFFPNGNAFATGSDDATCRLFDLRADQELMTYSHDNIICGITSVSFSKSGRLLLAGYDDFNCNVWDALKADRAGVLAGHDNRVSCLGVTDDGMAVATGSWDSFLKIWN
Sequence (P59768 2-68 partner limits assumed): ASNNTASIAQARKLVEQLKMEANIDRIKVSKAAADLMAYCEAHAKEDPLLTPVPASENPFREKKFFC
attributeMeasured: Emax (%)
Express your answer in %, writing the number without its unit.

CN(C[C@@H]1C[C@H]1CCNC(=O)c1cc2ccccc2[nH]1)[C@@H]1Cc2cccc3[nH]c(=O)n(c23)C1 [Compound 19]: 57.6
CN(CCCCNC(=O)c1ccc2scnc2c1)[C@@H]1Cc2cccc3[nH]c(=O)n(c23)C1 [Compound 8]: 108
CC1Cc2ccccc2N1C(=O)c1nc2ccccc2s1 (stereo not drawn) [Compound 2, reference compound]: 8.1
CN(CCCCNC(=O)c1nc2ccccc2s1)[C@@H]1Cc2cccc3[nH]c(=O)n(c23)C1 [Compound 9]: 85.1
CN(CCCCNC(=O)c1cc2ccccc2[nH]1)[C@@H]1Cc2cccc3[nH]c(=O)n(c23)C1 [Compound 1]: 51

Now look at this entry.
GET /value?item= CN(CC[C@@H]1C[C@H]1CNC(=O)c1cc2ccccc2[nH]1)[C@@H]1Cc2cccc3[nH]c(=O)n(c23)C1 [Compound 20] &field=Emax returns 72.4
